assay: circular dichroism; conditions: water; pH ns; 25 °C; 70 uM
*1 amine or outer side, *2 acyl side, *3 side chain or, on linkers, in order; H or OH if unused. Where a SMILES comes first, the peptide text is derived from it. Bridges are numbered along the chain shown (N, C = ends). [ ]: non-standard residue; d: D form. X3 = O=C(CSCCCCCCCCSCC(=O)[*:2])[*:1]; Dap = NC[C@H](N)C(=O)O
Assay Endpoint: helicity (%)
// note: answer is a bare numeric in %

Q) # query: helicity of entry CC[C@H](C)[C@@H]1NC(=O)[C@@H](NC(=O)[C@H](CCC(=O)O)NC(=O)[C@@H]2CCCN2C(=O)[C@H](CC(N)=O)NC(=O)[C@H](CCC(=O)O)NC(C)=O)CNC(=O)CSCCCCCCCCSCC(=O)NC[C@@H](C(=O)N[C@@H](Cc2c[nH]cn2)C(=O)N[C@H](C(=O)N[C@@H](CCC(N)=O)C(=O)N[C@@H](CCCNC(=N)N)C(=O)N[C@H](C(=O)N[C@@H](CCSC)C(N)=O)C(C)C)C(C)C)NC(=O)[C@H](CC(=O)O)NC(=O)[C@H](CC(C)C)NC1=O (Ac-ENPE[Dap]ILD[Dap]HVQRVM-NH2; linker 5-9 via X3)
A) 25

====

test: circular dichroism; conditions: water; pH ns; 25 °C; 70 uM
*1 amine or outer side, *2 acyl side, *3 side chain or, on linkers, in order; H or OH if unused. Where a SMILES comes first, the peptide text is derived from it. Bridges are numbered along the chain shown (N, C = ends). [ ]: non-standard residue; d: D form. X2 = O=C(CSCCCCCCCSCC(=O)[*:2])[*:1]; dDap = NC[C@@H](N)C(=O)O; Dap = NC[C@H](N)C(=O)O
Assay Endpoint: helicity
Report field: quantity (unit follows the number).

Q) Quick one: helicity of CC[C@H](C)[C@@H]1NC(=O)[C@@H](NC(=O)[C@H](CCC(=O)O)NC(=O)[C@@H]2CCCN2C(=O)[C@H](CC(N)=O)NC(=O)[C@H](CCC(=O)O)NC(C)=O)CNC(=O)CSCCCCCCCSCC(=O)NC[C@H](C(=O)N[C@@H](Cc2c[nH]cn2)C(=O)N[C@H](C(=O)N[C@@H](CCC(N)=O)C(=O)N[C@@H](CCCNC(=N)N)C(=O)N[C@H](C(=O)N[C@@H](CCSC)C(N)=O)C(C)C)C(C)C)NC(=O)[C@H](CC(=O)O)NC(=O)[C@H](CC(C)C)NC1=O (Ac-ENPE[Dap]ILD[dDap]HVQRVM-NH2; linker 5-9 via X2) ?
A) 25%

====

The reader will find reported helicity values listed item by item below.
assay: circular dichroism; conditions: water; pH ns; 25 °C; 70 uM
*1 amine or outer side, *2 acyl side, *3 side chain or, on linkers, in order; H or OH if unused. Where a SMILES comes first, the peptide text is derived from it. Bridges are numbered along the chain shown (N, C = ends). [ ]: non-standard residue; d: D form. X3 = O=C(CSCCCCCCCCSCC(=O)[*:2])[*:1]; dDap = NC[C@@H](N)C(=O)O; Dap = NC[C@H](N)C(=O)O
# value in %; strip the unit string

{"Molecule": "CC[C@H](C)[C@@H]1NC(=O)[C@@H](NC(=O)[C@H](CCC(=O)O)NC(=O)[C@@H]2CCCN2C(=O)[C@H](CC(N)=O)NC(=O)[C@H](CCC(=O)O)NC(C)=O)CNC(=O)CSCCCCCCCCSCC(=O)NC[C@H](C(=O)N[C@@H](Cc2c[nH]cn2)C(=O)N[C@H](C(=O)N[C@@H](CCC(N)=O)C(=O)N[C@@H](CCCNC(=N)N)C(=O)N[C@H](C(=O)N[C@@H](CCSC)C(N)=O)C(C)C)C(C)C)NC(=O)[C@H](CC(=O)O)NC(=O)[C@H](CC(C)C)NC1=O (Ac-ENPE[Dap]ILD[dDap]HVQRVM-NH2; linker 5-9 via X3)", "Reported Result": 14}

Q) Fill in: helicity of CC[C@H](C)[C@@H]1NC(=O)[C@H](NC(=O)[C@H](CCC(=O)O)NC(=O)[C@@H]2CCCN2C(=O)[C@H](CC(N)=O)NC(=O)[C@H](CCC(=O)O)NC(C)=O)CNC(=O)CSCc2cccc(c2)CSCC(=O)NC[C@H](C(=O)N[C@@H](Cc2c[nH]cn2)C(=O)N[C@H](C(=O)N[C@@H](CCC(N)=O)C(=O)N[C@@H](CCCNC(=N)N)C(=O)N[C@H](C(=O)N[C@@H](CCSC)C(N)=O)C(C)C)C(C)C)NC(=O)[C@H](CC(=O)O)NC(=O)[C@H](CC(C)C)NC1=O is ___
A) 13

====

assay: circular dichroism; details: water; pH ns; 25 °C; 70 uM
Assay Endpoint: helicity
Write down the value, and be sure its unit follows.

{"Smiles Data": "CC(=O)N[C@@H](CCC(N)=O)C(=O)N[C@@H](CO)C(=O)N[C@@H](CCC(N)=O)C(=O)N[C@@H](CCC(N)=O)C(=O)N[C@H](C(=O)N[C@@H](Cc1ccccc1)C(=O)N[C@H]1CNC(=O)CSCCCCCCCCSCC(=O)NC[C@@H](C(=O)N[C@@H](CCC(N)=O)C(=O)N[C@@H](CC(N)=O)C(N)=O)NC(=O)[C@H](CC(C)C)NC(=O)[C@H](CC(C)C)NC(=O)[C@H](CCCNC(=N)N)NC(=O)[C@H](Cc2c[nH]c3ccccc23)NC(=O)[C@H](CC(C)C)NC(=O)[C@H](CC(N)=O)NC1=O)[C@@H](C)O", "helicity": "42%"}

Now consider the entry below.
Q) # get_value(readout='helicity', item= CC(=O)N[C@@H](CCC(N)=O)C(=O)N[C@@H](CO)C(=O)N[C@@H](CCC(N)=O)C(=O)N[C@@H](CCC(N)=O)C(=O)N[C@H](C(=O)N[C@@H](Cc1ccccc1)C(=O)N[C@H]1CNC(=O)CSCc2ccc(cc2)CSCC(=O)NC[C@H](C(=O)N[C@@H](CCC(N)=O)C(=O)N[C@@H](CC(N)=O)C(N)=O)NC(=O)[C@H](CC(C)C)NC(=O)[C@H](CC(C)C)NC(=O)[C@H](CCCNC(=N)N)NC(=O)[C@H](Cc2c[nH]c3ccccc23)NC(=O)[C@H](CC(C)C)NC(=O)[C@H](CC(N)=O)NC1=O)[C@@H](C)O )
A) 64%

====

tested on: p53 wild-type HCT-116 cells; type: cell-based; details: human
# key: entry, value: EC50
API: value field is a number in nM; no unit string.

Q) // EC50 lookup, key: CC(=O)N[C@@H](CCC(N)=O)C(=O)N[C@@H](CO)C(=O)N[C@@H](CCC(N)=O)C(=O)N[C@@H](CCC(N)=O)C(=O)N[C@H](C(=O)N[C@@H](Cc1ccccc1)C(=O)N[C@H]1CNC(=O)CSCc2ccc(cc2)CSCC(=O)NC[C@@H](C(=O)N[C@@H](CCC(N)=O)C(=O)N[C@@H](CC(N)=O)C(N)=O)NC(=O)[C@H](CC(C)C)NC(=O)[C@H](CC(C)C)NC(=O)[C@H](CCCNC(=N)N)NC(=O)[C@H](Cc2c[nH]c3ccccc23)NC(=O)[C@H](CC(C)C)NC(=O)[C@H](CC(N)=O)NC1=O)[C@@H](C)O
A) 660

Q) If you can, please state the reported EC50 value of CC(=O)N[C@@H](CCC(N)=O)C(=O)N[C@@H](CO)C(=O)N[C@@H](CCC(N)=O)C(=O)N[C@@H](CCC(N)=O)C(=O)N[C@H](C(=O)N[C@@H](Cc1ccccc1)C(=O)N[C@H]1CNC(=O)CSCc2ccc(cc2)CSCC(=O)NC[C@H](C(=O)N[C@@H](CCC(N)=O)C(=O)N[C@@H](CC(N)=O)C(N)=O)NC(=O)[C@H](CC(C)C)NC(=O)[C@H](CC(C)C)NC(=O)[C@H](CCCNC(=N)N)NC(=O)[C@H](Cc2c[nH]c3ccccc23)NC(=O)[C@H](CC(C)C)NC(=O)[C@H](CC(N)=O)NC1=O)[C@@H](C)O .
A) 710

====

experiment: circular dichroism; conditions: water; pH ns; 25 °C; 70 uM
*1 amine or outer side, *2 acyl side, *3 side chain or, on linkers, in order; H or OH if unused. Where a SMILES comes first, the peptide text is derived from it. Bridges are numbered along the chain shown (N, C = ends). [ ]: non-standard residue; d: D form. X2 = O=C(CSCCCCCCCSCC(=O)[*:2])[*:1]; dDap = NC[C@@H](N)C(=O)O
Assay Endpoint: helicity (%)
Report the value in % with no unit label.

Q) // helicity lookup, key: CC[C@H](C)[C@@H]1NC(=O)[C@H](NC(=O)[C@H](CCC(=O)O)NC(=O)[C@@H]2CCCN2C(=O)[C@H](CC(N)=O)NC(=O)[C@H](CCC(=O)O)NC(C)=O)CNC(=O)CSCCCCCCCSCC(=O)NC[C@H](C(=O)N[C@@H](Cc2c[nH]cn2)C(=O)N[C@H](C(=O)N[C@@H](CCC(N)=O)C(=O)N[C@@H](CCCNC(=N)N)C(=O)N[C@H](C(=O)N[C@@H](CCSC)C(N)=O)C(C)C)C(C)C)NC(=O)[C@H](CC(=O)O)NC(=O)[C@H](CC(C)C)NC1=O (Ac-ENPE[dDap]ILD[dDap]HVQRVM-NH2; linker 5-9 via X2)
A) 31
